The reported measurements were obtained from PubChem BioAssay (NCATS).

Tested on: KB-3-1
Test: Cytotoxic Profiling of Annotated Libraries Using Quantitative High-Throughput Screening (AID 1296008); further: nearly all actives have a fitted effect of over 60% in size
Conditions: Five cell lines viability, CellTiter-Glo ATP luminescence, 48-72 h
Protocol: Cell-based phenotypic screening is a commonly used approach to discover biological pathways, novel drug targets, chemical probes and high-quality hit-to-lead molecules. […] A pintool (Kalypsys) was used to transfer 23 nL of compound solution to the 1536-well assay plates. […] Plates were left at room temperature for 10 min before imaging the ATP-coupled luminescence using a ViewLux microplate imager (PerkinElmer, Waltham, MA).
Records with an inconclusive call do not appear. The source made the active and inactive calls. The call rests on the fitted dose curve; in most records, active means well fitted inhibition curve with a large enough effect; inconclusive means small, poorly fitted or top-dose-only effect; inactive means flat fitted curve, though single readings scatter.
# valid calls are active, inactive; nothing else

[[record]]
compound = "COc1ccc(CNC(=O)c2cc(-c3cncc(C)c3)ncc2-c2nccs2)nc1OC"
tgt = "KB-3-1"
cat = "inactive"


Next item in the queue.
Q: Per the assay record, what outcome was assigned to "CN(C)C/C=C/C(=O)Nc1cccc(C(=O)Nc2cccc(Nc3ncc(Cl)c(-c4c[nH]c5ccccc45)n3)c2)c1" ?
Ans: active

---

test system: Tov112D; test: Primary qHTS to identify gynecologic anti-cancer compounds using libraries of approved drugs and bioactive compounds (AID 1345084); conditions: Gynecologic cancer cell panel viability, ATPlite luminescence, 48 h; series mostly up to 57.5 µM; further: nearly all actives have a fitted effect of over 55% in size
Results filed as inconclusive are left out. Active and inactive are the calls of the source. Calls come from the whole dose curve; as a rule, active = well fitted cell-killing curve with a large enough effect; inconclusive = small, poorly fitted or top-dose-only effect, or effect the other way; inactive = flat fitted curve, though single readings scatter.
# valid calls are active, inactive; nothing else

[[record]]
compound = "Cc1cc(C(N)=O)ccc1-n1c(CCC(=O)O)ccc1-c1ccc(-n2ccnc2)cc1"
cat = "inactive"

[[record]]
compound = "NC[C@@](O)(c1ccc(Cl)cc1)c1ccc(-c2cn[nH]c2)cc1"
cat = "active"

[[record]]
compound = "C=CC(C)(CC/C=C(\\C)C(=O)OC)OC1OC(COC(=O)CC(C)(O)CC(=O)O)C(OC2OC(CO)C(O)C(O)C2O)C(O)C1O (centres undefined)"
cat = "inactive"


Q: Per the assay record, what outcome was assigned to "Cn1cc(-c2ccc3nnc(Sc4ccc5nn(C)cc5c4)n3n2)cn1" ?
Ans: inactive

Q: Also need "CC[C@H](CO)Nc1nc(NCc2ccc(-c3ccccn3)cc2)c2ncn(C(C)C)c2n1" , thanks.
Ans: active

Q: Also need "COc1ccc(CCC(=O)c2c(O)cc(O)cc2O[C@@H]2O[C@H](CO)[C@@H](O)[C@H](O)[C@H]2O)cc1" , thanks.
Ans: inactive

Q: Also need CCC(C)C(=O)O[C@H]1CCC=C2C=C[C@H](C)[C@H](CC[C@@H](O)C[C@@H](O)CC(=O)O)[C@H]21 (some centres undefined) , thanks.
Ans: inactive

Q: Also need "CCc1cccc(CC)c1NC(=O)c1nn(C)c2c1CCc1cnc(Nc3ccc(C(=O)NC4CCN(C)CC4)cc3OC(F)(F)F)nc1-2" , thanks.
Ans: inactive

Q: Also need "O=C1CCC(=O)N(O)CCCCCNC(=O)CCC(=O)N(O)CCOCCNC(=O)CCC(=O)N(O)CCCCCN1" , thanks.
Ans: inactive

---

experiment: Primary qHTS for inhibitors of nuclear receptor binding SET domain protein 2 (NSD2) in an RCH-ACV wild type WT cells (2C) (AID 1645877); conditions: RCH-ACV NSD2 WT (2C) viability, CellTiter-Glo, 72 h; series mostly up to 44.9 µM; further: on the % scale 0 is the no-effect control and ±100 the full control effect; nearly all actives have a fitted effect of over 70% in size
Records with an inconclusive call do not appear. Active and inactive are the calls of the source. Calls come from the whole dose curve; as a rule, active = well fitted inhibition curve with a large enough effect; inconclusive = small, poorly fitted or top-dose-only effect; inactive = no such curve, though single readings can be large or run the other way. *1 amine or outer side, *2 acyl side, *3 side chain or, on linkers, in order; H or OH if unused. Where a SMILES comes first, the peptide text is derived from it. [ ]: non-standard residue; d: D form. X4 = CC(C)=CCc1cc(C(O)C(N[*:1])C(=O)[*:2])ccc1O
Each record here notes measured activity change, negative = cell killing.

Some compounds with known activity change, negative = cell killing results, for comparison:
[[record]]
compound = "CC(C)=CCc1cc(C(O)C2NC(=O)CNC(=O)C(Cc3c[nH]c4ccccc34)NC(=O)C3CCCN3C(=O)CNC(=O)C(C(C)C)NC(=O)CNC2=O)ccc1O (stereo not given) (cyclo(G[X4]GVGPW); configuration not given here)"
measured = "-18.5% [at 9.23 µM] (inactive)"

[[record]]
compound = "CC1OC(OC2C(C)OC(OC3C(O)C(CO)OC(O[C@H]4CC[C@@]5(C)C(CC[C@]6(C)C5CC=C5C7[C@@H](C)[C@H](C)CC[C@]7(C(=O)O)CC[C@]56C(=O)O)C4(C)C)C3O)C(O)C2O)C(O)C(O)C1O (stereo not given in full)"
measured = "-0.67% [at 9.23 µM] (inactive)"

[[record]]
compound = "CC(=O)C1=C(C)N(c2cccc(C(F)(F)F)c2)C(=O)N[C@H]1c1ccc(C#N)nc1"
measured = "-17.1% [at 9.23 µM] (inactive)"


Q: Need activity change, negative = cell killing, item CC1(C)CC[C@]2(C(=O)O[C@@H]3O[C@H](CO)[C@@H](O)[C@H](O)[C@H]3O)CC[C@]3(C)C(=CCC4[C@@]5(C)CC[C@H](O[C@@H]6O[C@H](C(=O)O)[C@@H](O)[C@H](O)[C@H]6O)[C@@](C)(CO)C5CC[C@]43C)C2C1 (stereo not given in full)
Ans: 4.55% [at 9.23 µM] (inactive)

Q: Also need CC1(C)CC[C@@]2(C(=O)O[C@@H]3O[C@H](CO)[C@@H](O)[C@H](O)[C@H]3O)C(C1)C1=CCC3[C@@]4(C)CC[C@@H](O[C@@H]5O[C@H](C(=O)O)[C@@H](O[C@@H]6OC[C@@H](O)[C@H](O)[C@H]6O)[C@H](O[C@@H]6OC[C@](O)(CO)[C@H]6O)[C@H]5O)C(C)(C)C4CC[C@@]3(C)[C@]1(C)C[C@H]2O (stereo not given in full) , thanks.
Ans: -88.4% [at 9.23 µM] (inactive)

Q: Also need CC(C)=CCC[C@](C)(O[C@@H]1O[C@H](CO[C@@H]2O[C@H](CO)[C@@H](O)[C@H](O)[C@H]2O)[C@@H](O)[C@H](O)[C@H]1O)C1CC[C@]2(C)[C@@H]1[C@H](O)CC1[C@@]3(C)CC[C@H](O[C@@H]4O[C@H](CO)[C@@H](O)[C@H](O)[C@H]4O[C@@H]4O[C@H](CO)[C@@H](O)[C@H](O)[C@H]4O)C(C)(C)[C@@H]3CC[C@]12C (stereo not given in full) , thanks.
Ans: -25.5% [at 9.23 µM] (inactive)

---

assay: Primary qHTS for inhibitors of nuclear receptor binding SET domain protein 2 (NSD2) in an isogenic RCH-ACV NSD2 p.E1099K mutant (9B) (AID 1645876); conditions: RCH-ACV (leukaemia line) NSD2 E1099K (9B) viability, CellTiter-Glo, 72 h; series mostly up to 44.9 µM; further: nearly all actives have a fitted effect of over 70% in size
Records with an inconclusive call do not appear. Calls of active or inactive are those of the source. Calls come from the whole dose curve; as a rule, active = well fitted inhibition curve with a large enough effect; inconclusive = small, poorly fitted or top-dose-only effect; inactive = flat fitted curve, though single readings scatter.
# valid calls are active, inactive; nothing else

[[record]]
compound = "COc1cc(C(=O)OC[C@@]2(O)CO[C@@H](O[C@H]3[C@H](Oc4ccc(C(=O)O)cc4OC)O[C@H](CO)[C@@H](O)[C@@H]3O)[C@@H]2O)ccc1O"
cat = "inactive"

[[record]]
compound = "COc1cc2c(cc1OC)-c1[nH]nc(Nc3cccc(F)c3)c1C2"
cat = "active"

[[record]]
compound = "O=C(NOCC(O)CO)c1ccc(F)c(F)c1Nc1ccc(I)cc1F (stereo not given)"
cat = "inactive"

[[record]]
compound = "COc1ccc(-c2ccc3c(N4CCOCC4)nc(N4CC(C)OC(C)C4)nc3n2)cc1CO (stereo not given)"
cat = "active"


Next item in the queue.
Q: Per the assay record, what outcome was assigned to "CC1(C)[C@@H](O)CC[C@]2(C)[C@H]3CC=C4[C@@H]5C[C@](C)(C(=O)O)CC[C@]5(C)CC[C@@]4(C)[C@]3(C)CC[C@@H]12" ?
Ans: inactive

---

system: Es-2; assay: Primary qHTS to identify gynecologic anti-cancer compounds using libraries of approved drugs and bioactive compounds (AID 1345084); conditions: Gynecologic cancer cell panel viability, ATPlite luminescence, 48 h; series mostly up to 57.5 µM; further: nearly all actives have a fitted effect of over 55% in size
Inconclusive results are not listed. The source made the active and inactive calls. Calls follow the shape of the dose curve; as a rule, active = well fitted cell-killing curve with a large enough effect; inconclusive = small, poorly fitted or top-dose-only effect, or effect the other way; inactive = flat fitted curve, though single readings scatter.
# valid calls are Y (active), N (inactive); nothing else

[[record]]
compound = "O=C(O)/C=C/c1ccc(-c2ccc(O)c(C34CC5CC(CC(C5)C3)C4)c2)cc1"
cat = "Y"

[[record]]
compound = "O=C(NCc1ccc(F)cc1)C(=O)c1c[nH]c2ccccc12"
cat = "N"

[[record]]
compound = "CC[C@H](NC(=O)[C@H](CS(=O)(=O)CC1CC1)N[C@@H](c1ccc(F)cc1)C(F)(F)F)C(=O)C(=O)NC1CC1"
cat = "N"

[[record]]
compound = "CC1(C)[C@@H](O)CC[C@]2(C)[C@H]3CC=C4[C@@H]5C[C@](C)(C(=O)O)CC[C@]5(C)CC[C@@]4(C)[C@]3(C)CC[C@@H]12"
cat = "N"

[[record]]
compound = "CN(C)CCn1cc(S(=O)(=O)c2cccc(F)c2)c2cccnc21"
cat = "N"


Q: Per the assay record, what outcome was assigned to "COC(=O)c1ccccc1O[C@@H]1O[C@H](CO)[C@@H](O)[C@H](O)[C@H]1O[C@@H]1O[C@@H](C)[C@H](O)[C@@H](O)[C@H]1O" ?
Ans: N

Q: Also need "Cc1nc2ccc(Oc3ccc(F)cc3)cc2c(=O)n1C[C@H]1CCCN(C(C)C)C1" , thanks.
Ans: N

Q: Also need "C=CC(C)(C)c1[nH]c2ccccc2c1C[C@@H]1NC(=O)[C@H](Cc2c[nH]c3ccccc23)NC1=O" , thanks.
Ans: N

Q: Also need CC[C@]1(O)CC2CN(CCc3c([nH]c4ccccc34)[C@@](C(=O)OC)(c3cc4c(cc3OC)N(C=O)[C@H]3[C@@](O)(C(=O)OC)[C@H](OC(C)=O)[C@]5(CC)C=CCN6CC[C@]43[C@@H]65)C2)C1 (some centres undefined) , thanks.
Ans: Y

Q: Also need "COc1cc2occc2c(O[C@@H]2O[C@H](CO)[C@@H](O)[C@H](O)[C@H]2O)c1CCC(=O)O" , thanks.
Ans: N
